Listing of entries alongside the reported XC50.
System: Plasmodium falciparum
experiment_notes: GSK_TCMDC: Inhibition of Plasmodium falciparum 3D7 in whole erythrocytes, using parasite LDH activity as an index of growth.
Format: functional, organism-based
conditions_used: Plasmodium falciparum, 3D7
Kindly format the answer as number then unit.

// below: answered compounds
INSERT INTO results (compound, test_readout, reported_measurement) VALUES
  ('Cc1cc(N[C@@H](Cc2ccccc2)C(=O)NCc2cccc(F)c2)nc(NCCCOC(C)C)n1', 'XC50', '920 nM'),
  ('CCNC(=O)c1ccc2c(c1)c(C)c(C)n2Cc1ccc(F)cc1', 'XC50', '767 nM'),
  ('CC(C)OC(=O)c1ccccc1S(N)(=O)=O', 'XC50', '674 nM'),
  ('Nc1c(C(=O)NCCCCN2CCN(c3nsc4ccccc34)CC2)sc2ccccc12', 'XC50', '1320 nM'),
  ('O=C(Nc1cccc(CN2CCCN(Cc3cccc(O)c3)CC2)c1)c1ccc2ccccc2c1', 'XC50', '786 nM'),
  ('Cc1ccc2cc(C3NC(=O)c4ccccc4N3)c(Cl)nc2c1 (stereo not given)', 'XC50', '945 nM');

May I ask what XC50 has been recorded for `N#Cc1ccc(CCNc2nccc(-c3cccc(CN4CCNCC4)c3)n2)cc1` ?
1250 nM

May I ask what XC50 has been recorded for `Cc1c(CNCCCNc2nc3ccncc3[nH]2)sc(Br)c1Br` ?
1040 nM

May I ask what XC50 has been recorded for `COc1c(C2CCN(CCCCNC(=O)c3ccc(-c4ccc(NC(=O)C(F)(F)F)cc4)cc3)CC2)ccc2c1CCCC2` ?
1000 nM

May I ask what XC50 has been recorded for `O=C(Cc1ccc(Cl)cc1)Nc1cc(Cl)ccc1Cn1cnc(N2CCNCC2)cc1=O` ?
998 nM

May I ask what XC50 has been recorded for `CCn1cc(-c2cc(C(=O)Nc3ccc(OC)cc3C)c3ccccc3n2)c(C)n1` ?
975 nM

====

System: Plasmodium falciparum
experiment_notes: GSK_TCMDC: Inhibition of Plasmodium falciparum 3D7 in whole erythrocytes, using parasite LDH activity as an index of growth.
Type: functional, organism-based
conditions_used: Plasmodium falciparum, 3D7
Binarize XC50 at 900 nM; below is 1.0, at or above is 0.0.

Example results:
INSERT INTO results (smiles_representation, test_target, class_assignment) VALUES
  ('CC(=O)Nc1cccc(CNCc2ccc(-c3cnc(N4CCCC(C)(C)C4)nc3)cc2)c1', 'Plasmodium falciparum', 1.0),
  ('CC(C)(CNC(=O)C1CCN(Cc2ccoc2)CC1)c1nc(-c2ccc(Cl)c(O)c2)c(-c2ccncc2)[nH]1', 'Plasmodium falciparum', 1.0),
  ('CCc1c[nH]c2c(N3CCCC3=O)cc(C(=O)N[C@@H](Cc3ccccc3)[C@H](O)CNC(C)(C)c3cccc(C(F)(F)F)c3)cc12', 'Plasmodium falciparum', 1.0),
  ('Clc1cc(Nc2ncnc3sc(C#Cc4ncc[nH]4)cc23)ccc1OCc1ccccn1', 'Plasmodium falciparum', 0.0);

Now, please, on to the next compound.
Quick check: XC50 of `O=[N+]([O-])c1ccc(/C=N/O)nc1` under 900 nM?
1.0

====

System: Plasmodium falciparum
experiment_notes: GSK_TCMDC: Inhibition of Plasmodium falciparum 3D7 in whole erythrocytes, using parasite LDH activity as an index of growth.
Assay type: functional, organism-based
conditions_used: Plasmodium falciparum, 3D7
test_readout: XC50
Kindly format the answer as number then unit.

// below: answered compounds
INSERT INTO measurements (compound, test_readout, reported_measurement) VALUES
  ('O=C(/C=C/c1ccc(Cl)c(Cl)c1)NCCCCCN1CCC(NC(=O)Nc2ccccc2Cl)CC1', 'XC50', '714 nM'),
  ('C[C@@H]([C@@H](CCCCc1ccccc1)C(=O)N[C@H](C(=O)Nc1cccnc1)C(C)(C)C)N(O)C=O', 'XC50', '929 nM'),
  ('O=C1Nc2ccc3ncccc3c2/C1=C/Nc1ccc(Cn2ccnc2)cc1', 'XC50', '659 nM');

May I ask what XC50 has been recorded for `Cc1ccc(Oc2ncccc2C(=O)Nc2cccc3cccnc23)c(C)c1` ?
225 nM

May I ask what XC50 has been recorded for NC1CCN(CCNCc2cccc(-c3ccc(-c4nc5cc(C(F)(F)F)ccc5[nH]4)cc3)c2)C1 (stereo not given) ?
893 nM

May I ask what XC50 has been recorded for `Cc1ccc2c(=NN=Cc3ccc(Cl)cc3)cc(C)[nH]c2c1` ?
945 nM

May I ask what XC50 has been recorded for `Cc1c(C(C)(C)C)ccc2nc(N)nc(N)c12` ?
8.73 nM

May I ask what XC50 has been recorded for `FC(F)(F)c1ccc2[nH]ccc(=NN=Cc3ccc(Cl)cc3)c2c1` ?
791 nM

May I ask what XC50 has been recorded for `O=C(Nc1ccc(-c2ccccc2)cc1)Nc1cccc(Cn2cnc(N3CCCNCC3)cc2=O)c1` ?
1080 nM

May I ask what XC50 has been recorded for `COc1cc(OC)c2c(c1Cl)O[C@]1(C2=O)C(=O)C(Cc2ccccc2)(Cc2ccccc2)C(=O)C[C@H]1C` ?
974 nM

May I ask what XC50 has been recorded for Cc1ccc2c(c1)C1(CC(=O)N(CCc3scnc3C)C1=O)C(=O)N2Cc1ccccc1 (stereo not given) ?
1250 nM

May I ask what XC50 has been recorded for `CC(=O)Nc1nc(C(=O)Nc2ccc(-c3ccc(-c4nc5ccccc5[nH]4)cc3)cc2)cs1` ?
150 nM

May I ask what XC50 has been recorded for `CCOc1ccc2c(=NN=Cc3ccc(F)cc3)cc(C)[nH]c2c1` ?
584 nM

May I ask what XC50 has been recorded for `NCCNc1ccc([N+](=O)[O-])cc1C(=O)Nc1cccc(C(F)(F)F)c1` ?
905 nM

May I ask what XC50 has been recorded for `Cc1cccc2nc(-c3cccc(-c4cccc(NC(=O)c5c[nH]cn5)c4)c3)[nH]c12` ?
258 nM

May I ask what XC50 has been recorded for `O=C(Nc1cc(Oc2ccc(O)cc2)cc([N+](=O)[O-])c1)c1cc(-c2ccc(F)cc2)no1` ?
955 nM

May I ask what XC50 has been recorded for O=C(/C=C/c1c(Cl)cccc1Cl)NC1CCC(CN2CCC(c3c[nH]c4ccncc34)CC2)CC1 (stereo not given) ?
158 nM

====

Test system: Plasmodium falciparum
experiment_notes: GSK_TCMDC: Inhibition of Plasmodium falciparum 3D7 in whole erythrocytes, using parasite LDH activity as an index of growth.
Type: functional, organism-based
conditions_used: Plasmodium falciparum, 3D7
Binarize XC50 at 900 nM; below is 1, at or above is -1.

Example results:
INSERT INTO measurements (smiles_representation, class_assignment) VALUES
  ('CN1CCC(C(=O)Nc2ccc(-c3cccc(-c4nc5cc(C(F)(F)F)ccc5[nH]4)c3)cc2)CC1', 1),
  ('COc1ccc(F)cc1-c1ccccc1CNC(=O)CN(C)S(=O)(=O)c1cc(C)cc(Cl)c1C', 1),
  ('CC(C)C[C@H]1C(=O)N[C@H](C2Cc3ccccc3C2)C(=O)N1[C@@H](C(=O)Nc1ccccc1OCc1ccccc1)c1ccc(F)cc1F', -1),
  ('CCCCCCN1CCC(NCc2cccc3ccccc23)CC1', 1);

Quick check: XC50 of `COC(=O)c1ccc2nc(-c3cc(-c4cccc(-c5ccccc5)c4)cnc3N)[nH]c2c1` under 900 nM?
1

Quick check: XC50 of `CCOc1ccc(-c2nonc2NC(=O)CC(C)C)cc1OCC` under 900 nM?
-1

Quick check: XC50 of `CCNC(=O)c1cc(S(=O)(=O)N2CCN(c3ccccn3)CC2)cs1` under 900 nM?
1

Quick check: XC50 of `O=C(NCc1cc2c(cc1Cl)OCO2)c1ccc(CNC2CCN(Cc3ccccc3)CC2)cc1` under 900 nM?
1

====

Tested on: Plasmodium falciparum
experiment_notes: GSK_TCMDC: Inhibition of Plasmodium falciparum 3D7 in whole erythrocytes, using parasite LDH activity as an index of growth.
Assay type: functional, organism-based
conditions_used: Plasmodium falciparum, 3D7
Listing of entries alongside the reported XC50.
Give the value in nM but do not write nM after it.

// below: answered compounds
INSERT INTO assay_data (compound, test_target, reported_measurement) VALUES
  ('CCN(CC)c1ccc(-c2nc3cc(Cl)cnc3[nH]2)cc1', 'Plasmodium falciparum', 1130),
  ('CCCCCC(C)N/C(=N/c1ccccc1Br)Nc1ccc(C#N)cc1O (stereo not given)', 'Plasmodium falciparum', 751),
  ('O=S(=O)(NCCN1CCCC1)c1cccc(-c2cccc(CNCc3ccc(F)cc3)c2)c1', 'Plasmodium falciparum', 848),
  ('Cc1cc(NCCC(=O)Nc2ccccc2)nc(NCCc2ccc(F)cc2)n1', 'Plasmodium falciparum', 1130),
  ('CC(C)(C)c1ccc(CN2CCC(CNC(=O)c3cc(-c4cccc(Cl)c4)cs3)C2)cc1 (stereo not given)', 'Plasmodium falciparum', 1160),
  ('CCc1c(CCNCCCCCCNCCc2ccc(OC)c(OC)c2CC)ccc(OC)c1OC', 'Plasmodium falciparum', 735),
  ('CC(C)(C)c1cc(NC(=O)c2ccc(Cl)c([N+](=O)[O-])c2)cc(C(C)(C)C)c1', 'Plasmodium falciparum', 1030),
  ('CCCCCCCc1c(C)[nH]c2ccc(F)cc2c1=O', 'Plasmodium falciparum', 289),
  ('COc1ccc(Nc2nccc(N3CCC(NC(=O)Nc4cc(C)ccc4C)C3)n2)cc1 (stereo not given)', 'Plasmodium falciparum', 901),
  ('Cc1nc2ccc3ccc(CNc4ccc(C(=O)CC(CCC(=O)O)C(=O)O)cc4)cc3c2c(=O)[nH]1 (stereo not given)', 'Plasmodium falciparum', 35.7);

May I ask what XC50 has been recorded for CCN(CC)CCOc1ccc(C(O)(C#CC(O)(c2ccc(Br)cc2)c2ccc(OCCN(CC)CC)cc2)c2ccc(Br)cc2)cc1 (stereo not given) ?
616

May I ask what XC50 has been recorded for `CN1CCN(c2cc(NC(=O)c3ccc(-c4ccc(Cl)cc4)cc3)ccc2Cl)CC1` ?
613

May I ask what XC50 has been recorded for CCCc1ccc2c(c1O)CCC(N(CCC)CCC)C2 (stereo not given) ?
886

May I ask what XC50 has been recorded for `Cc1cccc2nc(-c3ccc(-c4cccc(C(=O)NCCN5CCCC5)c4)s3)[nH]c12` ?
1140
